system: Escherichia coli TOP10; test: shrunken log2 fold change of peptide-encoding DNA abundance (4.5 h post-induction vs induction); higher = less antimicrobial activity (less host growth inhibition); conditions: time post-induction: 4.5 h; library: site-saturation at positions 5, 18, 19, 20
reported-metric: shrunken log2 fold change
Number only, please.

# sequence-chain, shrunken log2 fold change
measured = [
    ("RRIRNRPPRLPRPRPRPLWRPRP", 0.179),
    ("RRIRQRPPRLPRPRPRPYQQPRP", -0.0082),
    ("RRIRPRPPRLPRPRPRPIYLPRP", -0.379),
    ("RRIRCRPPRLPRPRPRPEDNPRP", 0.11),
    ("RRIRDRPPRLPRPRPRPSFHPRP", -0.429),
]

State its shrunken log2 fold change: RRIRGRPPRLPRPRPRPDHIPRP
0.199

State its shrunken log2 fold change: RRIRMRPPRLPRPRPRPDLYPRP
0.0737

State its shrunken log2 fold change: RRIRKRPPRLPRPRPRPDMMPRP
1.43

----------
test system: Escherichia coli TOP10; experiment: shrunken log2 fold change of peptide-encoding DNA abundance (4.5 h post-induction vs induction); higher = less antimicrobial activity (less host growth inhibition); conditions: time post-induction: 4.5 h; library: site-saturation at positions 5, 18, 19, 20
Just so you know, the groups by shrunken log2 fold change go like this: lower level = under -0.03, middle level = from -0.03 up to 0.4, upper level = 0.4 and over

# sequence-chain, classification
records = [
    ("RRIRMRPPRLPRPRPRPKTEPRP", "middle level"),
    ("RRIRGRPPRLPRPRPRPNEQPRP", "lower level"),
]

Assign a bin to RRIRHRPPRLPRPRPRPRHRPRP
middle level

Assign a bin to RRIRCRPPRLPRPRPRPWFWPRP
middle level

Assign a bin to RRIRSRPPRLPRPRPRPTTNPRP
middle level

Assign a bin to RRIRSRPPRLPRPRPRPIDQPRP
lower level

Assign a bin to RRIRSRPPRLPRPRPRPVRQPRP
middle level

Assign a bin to RRIRLRPPRLPRPRPRPFQKPRP
middle level

----------
system: Escherichia coli TOP10; experiment: shrunken log2 fold change of peptide-encoding DNA abundance (4.5 h post-induction vs induction); higher = less antimicrobial activity (less host growth inhibition); settings: time post-induction: 4.5 h; library: site-saturation at positions 5, 18, 19, 20;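 note: peptides expressed intracellularly from a pBAD plasmid library in pooled LB shake-flask culture, induced with 0.3% L-arabinose, DNA abundance read by NGS, three biological replicates, DESeq2 with apeglm shrinkage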
Just so you know, the groups by shrunken log2 fold change go like this: low-valued = under -0.3, mid-valued = from -0.3 up to 0.2, high-valued = 0.2 and over

# count of solved cases: 5
# sequence-chain, classification
measured = [
    ("RRIRRRPPRLPRPRPRPLNLPRP", "mid-valued"),
    ("RRIRHRPPRLPRPRPRPQLPPRP", "mid-valued"),
    ("RRIRRRPPRLPRPRPRPARVPRP", "high-valued"),
    ("RRIRYRPPRLPRPRPRPQHDPRP", "low-valued"),
    ("RRIRRRPPRLPRPRPRPGPSPRP", "high-valued"),
]

Assign a bin to RRIRDRPPRLPRPRPRPQESPRP
mid-valued

Assign a bin to RRIRDRPPRLPRPRPRPGAYPRP
mid-valued

Assign a bin to RRIRRRPPRLPRPRPRPPFEPRP
high-valued

Assign a bin to RRIRTRPPRLPRPRPRPHSPPRP
mid-valued

Assign a bin to RRIRDRPPRLPRPRPRPQPDPRP
mid-valued

Assign a bin to RRIRIRPPRLPRPRPRPIIQPRP
low-valued

Assign a bin to RRIRFRPPRLPRPRPRPQRYPRP
mid-valued
